# Test system: SK-MEL-5
# Test Name: NCI tumour cell line growth inhibition, 48 h
Activity calls are given as the source filed them. Cut-off read from the data, not from the text of the source: active = GI50 up to about 1.1 µM and inactive = higher.
Allowed answers: active, inactive

Check the results log: what was the call for O=C(CC(=O)N1N=C(N(c2ccccc2)c2ccccc2)CC1c1ccccc1)Nc1ccc(Cl)cc1 (centres undefined) ?
inactive

Could you kindly confirm the outcome this assay logged for N#Cc1c(O)nc2[nH]nc(/N=N\c3c(O)ccc4ccccc34)c2c1-c1ccc(Cl)cc1 ?
active

// return assay outcome for O=C(C=P(c1ccccc1)(c1ccccc1)c1ccccc1)c1ccc(-c2cccc([N+](=O)[O-])c2)s1
inactive

What was the test verdict on CC(C)(C)NNc1c([N+](=O)[O-])cnn(-c2ccccc2)c1=O ?
inactive

Hello, I am checking results. What call was entered for CCN(C(=O)N[C@H](C(=O)N[C@@H](C)C(=O)OC)C(C)C)c1ccccc1 ?
inactive

Assay outcome for O=P(NC12CC3CC(CC(C3)C1)C2)(N1CC1)N1CC1 : what was it?
inactive

Per the assay record, what outcome was assigned to CCN(CC)c1ccc2cc(C(=O)Nc3cccc4ccccc34)c(=N)oc2c1 ?
inactive

What classification did CCOC(=O)[C@@H](Cc1ccc(CCl)cc1)NC(C)=O end up with in this test?
inactive

Hello, I am checking results. What call was entered for NC(Cc1ccc(S(=O)(=O)O)cc1)C(=O)NC(Cc1ccc(S(=O)(=O)O)cc1)C(=O)NC(Cc1ccc(S(=O)(=O)O)cc1)C(=O)O (centres undefined) ?
inactive

---

# System: HOP-92
# Test Name: NCI tumour cell line growth inhibition, 48 h
Activity calls are given as the source filed them. Cut-off read from the data, not from the text of the source: active = GI50 up to about 1.1 µM and inactive = higher.
In this exercise, the only acceptable responses are true for active, false for inactive

What did the test return for O=C(O)c1c[nH]c2c(Sc3ccccc3)nccc2c1=O ?
false

Kindly provide the recorded test outcome for the following compound: CCSC1=N/C(=C\c2ccco2)C(NN)=N1
false

Which outcome was assigned to CCC(CCCN)Nc1cc(OC)cc2cccnc12 (centres undefined) in this test?
false

Field: outcome | Entry: CC1(O)C(C)(O)C2(C)O[Te]3(OC12C)OC1(C)C(C)(O)C(C)(O)C1(C)O3 (centres undefined)
false

Please state the recorded outcome for this compound: O=C1CCCC2COc3ccc(O)c1c32 (centres undefined)
false

Which outcome did this test record for the compound COc1cc2c3c(cc(Cl)nc3c1OC)C(O)(CC(=O)c1ccccc1)C(=O)N2 (centres undefined) ?
false

Would you mind telling me which call this test gave C/C(=N\NS(=O)(=O)c1c(C)cc(C)cc1C)c1ccc[n+]([O-])n1 ?
false

How was Cc1nc2ccc(Br)cc2c(=O)n1-c1ccc(N)cc1 classified in this test?
false

Status in this test for Cc1[nH]c(=O)nc(S)c1C(=O)Nc1cccc2cc3ccccc3cc12 ?
false

Returns: the outcome recorded for C[N+](C)(C)CC(CC(=O)[O-])C1CC1 (centres undefined) in this assay.
false

Please indicate how the test categorized CC1=C(C)C(=O)C(C2=CC(=O)C=CC2=O)=C(C2=CC(=O)C=CC2=O)C1=O .
false

For COc1cc(C2S/C(=C/c3ccccc3)C(=O)N2c2ccc(NC(C)=O)cc2)cc(OC)c1OC (centres undefined) , which call appears in the assay record?
false

Could you please tell me the result logged for CN(/N=C/c1ccccn1)C1=NCCCCN1 in this assay?
false

I would be grateful if you could indicate the recorded call for CCCCCCCCCCCCCC[C@@H](O)[C@H]1CC[C@H]([C@H]2CC[C@H]([C@H](O)CCCCCC[C@@H](O)CC3=C[C@H](C)OC3=O)O2)O1 .
false

// outcome(item) with item = Cc1ccc(S(=O)(=O)N(CC(O)COc2ccccc2)c2ccc(F)cc2F)cc1 (centres undefined)
true

GET /call?item= O=C1Nc2ccccc2/C1=N/N=C1NCCCCN1 returns the recorded outcome of this test.
false

Field: outcome | Entry: C[N+](C)(C)CC(=O)N/N=C(/Cc1nc2ccc([N+](=O)[O-])cc2nc1O)C(=O)Nc1cc(C(F)(F)F)ccc1Cl
false

# lookup: test call for O=C(C/C(=N/O)c1cc(-c2ccccc2)no1)c1ccccc1
false

What was the test verdict on O=C(CC(=O)N1N=C(N(c2ccccc2)c2ccccc2)CC1c1ccccc1)Nc1ccc(Cl)cc1 (centres undefined) ?
false

# outcome recorded in this test, key = CCC(CC)n1cc(C(=O)NC(=O)NCCCCCOC(=O)CCCCCCCCCCC(=O)OCCCCCNC(=O)NC(=O)c2cn(C(CC)CC)c(=O)[nH]c2=O)c(=O)[nH]c1=O
false

Any idea what this test logged for CC1(CO)COC(C)(C)OC1 ?
false

Answer briefly: the call reported for O=C1OC(C(O)CO)C(O)=C1O (centres undefined) in this assay.
false

Can you look up the reported call for N#C/C(=C\c1c(O)cc(O)cc1O)C(N)=O for me?
false

Short answer needed: outcome of this test for O=C(c1ccccc1)c1ccc(N2C(=O)/C(=C/c3cccc([N+](=O)[O-])c3)N=C2c2ccccc2)c(N2C(=O)/C(=C/c3cccc([N+](=O)[O-])c3)N=C2c2ccccc2)c1 ?
false
